targetDesc: α4β7 integrin (Homo sapiens (Human), UniProt P13612+P26010)
Sequence (P13612 34-1032): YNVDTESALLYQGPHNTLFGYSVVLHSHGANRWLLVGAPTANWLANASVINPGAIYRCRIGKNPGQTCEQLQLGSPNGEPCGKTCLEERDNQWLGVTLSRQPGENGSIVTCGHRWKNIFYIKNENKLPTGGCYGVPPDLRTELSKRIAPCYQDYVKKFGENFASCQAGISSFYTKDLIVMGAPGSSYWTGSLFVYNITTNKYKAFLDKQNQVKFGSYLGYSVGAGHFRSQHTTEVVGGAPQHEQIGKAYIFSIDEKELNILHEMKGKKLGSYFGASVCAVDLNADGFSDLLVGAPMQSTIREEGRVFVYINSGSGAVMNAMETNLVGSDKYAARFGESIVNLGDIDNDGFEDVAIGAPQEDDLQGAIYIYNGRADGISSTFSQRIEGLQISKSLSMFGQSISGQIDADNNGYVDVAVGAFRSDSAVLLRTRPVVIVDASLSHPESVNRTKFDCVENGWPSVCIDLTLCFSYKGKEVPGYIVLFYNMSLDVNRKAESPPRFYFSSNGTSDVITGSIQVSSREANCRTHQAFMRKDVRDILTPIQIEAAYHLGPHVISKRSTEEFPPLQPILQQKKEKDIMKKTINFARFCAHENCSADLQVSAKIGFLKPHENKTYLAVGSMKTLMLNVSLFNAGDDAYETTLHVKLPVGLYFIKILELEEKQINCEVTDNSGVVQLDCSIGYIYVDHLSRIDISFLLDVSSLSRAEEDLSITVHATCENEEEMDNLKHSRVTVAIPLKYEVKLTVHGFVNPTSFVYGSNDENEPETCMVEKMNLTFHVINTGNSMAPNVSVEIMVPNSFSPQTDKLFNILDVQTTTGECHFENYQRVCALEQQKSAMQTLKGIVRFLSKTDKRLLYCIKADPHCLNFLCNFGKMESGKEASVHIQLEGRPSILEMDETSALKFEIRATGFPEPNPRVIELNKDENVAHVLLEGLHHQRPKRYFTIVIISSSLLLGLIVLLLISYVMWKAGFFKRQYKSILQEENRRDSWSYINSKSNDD
Sequence (P26010 20-798): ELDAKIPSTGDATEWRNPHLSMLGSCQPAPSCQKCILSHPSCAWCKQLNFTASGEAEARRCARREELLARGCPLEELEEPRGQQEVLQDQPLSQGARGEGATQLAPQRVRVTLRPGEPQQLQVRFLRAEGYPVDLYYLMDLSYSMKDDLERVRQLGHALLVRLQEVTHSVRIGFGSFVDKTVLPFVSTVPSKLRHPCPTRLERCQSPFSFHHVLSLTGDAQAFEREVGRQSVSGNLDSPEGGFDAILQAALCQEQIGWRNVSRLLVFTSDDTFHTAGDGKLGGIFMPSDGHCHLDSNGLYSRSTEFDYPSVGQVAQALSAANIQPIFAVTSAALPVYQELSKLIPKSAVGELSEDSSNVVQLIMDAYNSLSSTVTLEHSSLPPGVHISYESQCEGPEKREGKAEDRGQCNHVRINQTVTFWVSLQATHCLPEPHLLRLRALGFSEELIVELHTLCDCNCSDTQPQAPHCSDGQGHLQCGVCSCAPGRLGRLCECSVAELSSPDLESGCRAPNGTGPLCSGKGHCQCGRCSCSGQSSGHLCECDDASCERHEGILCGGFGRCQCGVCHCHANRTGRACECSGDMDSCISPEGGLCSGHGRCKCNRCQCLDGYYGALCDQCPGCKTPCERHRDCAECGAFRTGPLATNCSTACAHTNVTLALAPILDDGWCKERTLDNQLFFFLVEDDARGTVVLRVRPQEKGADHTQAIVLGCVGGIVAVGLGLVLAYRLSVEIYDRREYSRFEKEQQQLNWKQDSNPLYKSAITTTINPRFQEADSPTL
assayProtocol: MAdCAM-1/α4β7 integrin binding inhibitory activity evaluation test (RPMI-8866 cell adhesion to MAdCAM-1/Fc)
Assay type: cell-based
conditionSummary: IC50 in VCAM-1/α4β1 test divided by IC50 in MAdCAM-1/α4β7 test
Outcome label depends on Selectivity relative to 200: at/above gives fulfilled, below gives not fulfilled.

cpdSmiles: Cn1c(=O)n(-c2ccc(C[C@H](NC(=O)c3c(F)cc(NS(=O)(=O)c4ccc(-c5ncc[nH]5)cc4)cc3F)C(=O)O)cc2)c(=O)c2ccncc21
categoryLabel: fulfilled

cpdSmiles: Cn1ccc(=O)n(-c2ccc(C[C@H](NC(=O)c3c(F)cc(NS(=O)(=O)c4ccc(-c5cncnc5)cn4)cc3F)C(=O)O)cc2)c1=O
categoryLabel: fulfilled

cpdSmiles: Cn1c(=O)n(-c2ccc(C[C@H](NC(=O)c3c(F)cc(NS(=O)(=O)c4ccc(-c5nccs5)cn4)cc3F)C(=O)O)cc2)c(=O)c2ccncc21
categoryLabel: not fulfilled

cpdSmiles: CN(C)c1ccc2c(c1)c(=O)n(-c1ccc(C[C@H](NC(=O)c3c(F)cc(NS(=O)(=O)c4ccc(-n5cncn5)cc4)cc3F)C(=O)O)cc1)c(=O)n2C
categoryLabel: fulfilled

cpdSmiles: Cn1c(=O)n(-c2ccc(C[C@H](NC(=O)c3c(F)cc(NS(=O)(=O)c4ccc(-c5ccncc5)cc4)cc3F)C(=O)O)cc2)c(=O)c2ccncc21
categoryLabel: fulfilled

cpdSmiles: Cn1ccc(=O)n(-c2ccc(C[C@H](NC(=O)c3c(F)cc(NS(=O)(=O)c4ccc(-n5ccnn5)cc4)cc3F)C(=O)O)cc2)c1=O
categoryLabel: fulfilled

cpdSmiles: Cn1c(=O)n(-c2ccc(C[C@H](NC(=O)c3c(F)cc(NS(=O)(=O)c4ccc(-c5ccsc5)cc4)cc3F)C(=O)O)cc2)c(=O)c2ccncc21
categoryLabel: fulfilled

cpdSmiles: Cn1c(=O)n(-c2ccc(C[C@H](NC(=O)c3c(F)cc(NS(=O)(=O)c4ccc(-n5cccn5)cc4)cc3F)C(=O)O)cc2)c(=O)c2ccncc21
categoryLabel: not fulfilled

cpdSmiles: Cn1c(=O)n(-c2ccc(C[C@H](NC(=O)c3c(F)cc(NS(=O)(=O)c4ccc(-n5ccnn5)cn4)cc3F)C(=O)O)cc2)c(=O)c2ccncc21
categoryLabel: fulfilled

cpdSmiles: Cn1cnc2c1c(=O)n(-c1ccc(C[C@H](NC(=O)c3c(F)cc(NS(=O)(=O)c4ccc(-n5cccc5)cc4)cc3F)C(=O)O)cc1)c(=O)n2C
categoryLabel: fulfilled

cpdSmiles: Cn1ccc(=O)n(-c2ccc(C[C@H](NC(=O)c3c(F)cc(NS(=O)(=O)c4ccc(-c5ncccn5)cn4)cc3F)C(=O)O)cc2)c1=O
categoryLabel: fulfilled

cpdSmiles: Cn1cnc2c1c(=O)n(-c1ccc(C[C@H](NC(=O)c3c(F)cc(NS(=O)(=O)c4ccc(-c5ccncc5)cc4)cc3F)C(=O)O)cc1)c(=O)n2C
categoryLabel: fulfilled

cpdSmiles: Cn1ccc(=O)n(-c2ccc(C[C@H](NC(=O)c3c(F)cc(NS(=O)(=O)c4ccc(C(=O)NC5CC5)cc4)cc3F)C(=O)O)cc2)c1=O
categoryLabel: fulfilled

cpdSmiles: CNCc1ccc(S(=O)(=O)Nc2ccc(C(=O)N[C@@H](Cc3ccc(-n4c(=O)c5ccncc5n(C)c4=O)cc3)C(=O)O)c(F)c2)cc1
categoryLabel: fulfilled

cpdSmiles: Cn1c(=O)n(-c2ccc(C[C@H](NC(=O)c3c(F)cc(NS(=O)(=O)c4ccc(-c5ccnc(F)c5)cc4)cc3F)C(=O)O)cc2)c(=O)c2ccncc21
categoryLabel: fulfilled

cpdSmiles: Cn1c(=O)n(-c2ccc(C[C@H](NC(=O)c3c(F)cc(NS(=O)(=O)c4ccc(C5=CCNCC5)cc4)cc3F)C(=O)O)cc2)c(=O)c2ccncc21
categoryLabel: not fulfilled

cpdSmiles: Cn1c(=O)n(-c2ccc(C[C@H](NC(=O)c3c(F)cc(NS(=O)(=O)c4ccc(-n5cncn5)nc4)cc3F)C(=O)O)cc2)c(=O)c2ccncc21
categoryLabel: not fulfilled

cpdSmiles: Cn1c(=O)n(-c2ccc(C[C@H](NC(=O)c3c(F)cc(NS(=O)(=O)c4ccc(-c5ccncc5)nc4)cc3F)C(=O)O)cc2)c(=O)c2ccncc21
categoryLabel: not fulfilled

cpdSmiles: Cn1c(=O)n(-c2ccc(C[C@H](NC(=O)c3c(F)cc(NS(=O)(=O)c4ccc(-n5nccn5)cc4)cc3F)C(=O)O)cc2)c(=O)c2ccncc21
categoryLabel: fulfilled

cpdSmiles: Cc1cnccc1-c1ccc(S(=O)(=O)Nc2cc(F)c(C(=O)N[C@@H](Cc3ccc(-n4c(=O)c5ccncc5n(C)c4=O)cc3)C(=O)O)c(F)c2)cc1
categoryLabel: fulfilled

cpdSmiles: CCNC(=O)c1ccc(S(=O)(=O)Nc2cc(F)c(C(=O)N[C@@H](Cc3ccc(-n4c(=O)ccn(C)c4=O)cc3)C(=O)O)c(F)c2)cc1
categoryLabel: fulfilled

cpdSmiles: Cn1cnc2c1c(=O)n(-c1ccc(C[C@H](NC(=O)c3c(F)cc(NS(=O)(=O)c4ccc(-c5ncccn5)cc4)cc3F)C(=O)O)cc1)c(=O)n2C
categoryLabel: fulfilled

cpdSmiles: Cc1cc(-c2ccc(S(=O)(=O)Nc3cc(F)c(C(=O)N[C@@H](Cc4ccc(-n5c(=O)c6ccncc6n(C)c5=O)cc4)C(=O)O)c(F)c3)cc2)ccn1
categoryLabel: fulfilled

###

targetDesc: α4β7 integrin (Homo sapiens (Human), UniProt P13612+P26010)
assayProtocol: MAdCAM-1/α4β7 integrin binding inhibitory activity evaluation test in the presence of serum (1)
Assay type: cell-based
conditionSummary: RPMI-8866 cells binding to mouse MAdCAM-1/Fc, human serum at final concentration of 50%; read-out: α4β7 with serum added, IC50
pIC50: −log10 of the molar value.

cpdSmiles: Cn1cnc2c1c(=O)n(-c1ccc(C[C@H](NC(=O)c3c(F)cc(NS(=O)(=O)c4ccc(-n5cccc5)cc4)cc3F)C(=O)O)cc1)c(=O)n2C
pIC50: 7.66
--
cpdSmiles: Cn1c(=O)n(-c2ccc(C[C@H](NC(=O)c3c(F)cc(NS(=O)(=O)c4ccc(-c5nccs5)cn4)cc3F)C(=O)O)cc2)c(=O)c2ccncc21
pIC50: 8.39
--
cpdSmiles: Cn1c(=O)n(-c2ccc(C[C@H](NC(=O)c3c(F)cc(NS(=O)(=O)c4ccc(-c5ncc[nH]5)cc4)cc3F)C(=O)O)cc2)c(=O)c2ccncc21
pIC50: 7.85

###

Reported pIC50 values follow for various compounds
targetDesc: α4β7 integrin (Homo sapiens (Human), UniProt P13612+P26010)
assayProtocol: MAdCAM-1/α4β7 integrin binding inhibitory activity evaluation test in the presence of serum (2)
Type: cell-based
conditionSummary: RPMI-8866 cells binding to mouse MAdCAM-1/Fc, same manner as Test (3), read-out: α4β7 Rank of activity with serum added
pIC50: −log10 of the molar value.
assayMetric: pIC50

cpdSmiles: Cn1c(=O)n(-c2ccc(C[C@H](NC(=O)c3ccc(NS(=O)(=O)c4cc[n+]([O-])cc4)cc3F)C(=O)O)cc2)c(=O)c2cc[n+]([O-])cc21
result: ≥ 8.00
//
cpdSmiles: Cn1c(=O)n(-c2ccc(C[C@H](NC(=O)c3cc(F)c(NS(=O)(=O)c4ccc(C(=O)C5CC5)cc4)cc3F)C(=O)O)nc2)c(=O)c2ccncc21
result: 6.70 to 7.30
//
cpdSmiles: COc1ccccc1S(=O)(=O)Nc1cc(F)c(C(=O)N[C@@H](Cc2ccc(-n3c(=O)c4ccncc4n(C)c3=O)cc2)C(=O)O)c(F)c1
result: ≥ 8.00
//
cpdSmiles: COc1cc2c(=O)n(-c3ccc(C[C@H](NC(=O)c4ccc(NS(=O)(=O)c5ccco5)cc4F)C(=O)O)cc3)c(=O)n(C)c2cn1
result: 7.30 to 8.00
//
cpdSmiles: CCc1ncc(-c2ccc(S(=O)(=O)Nc3cc(F)c(C(=O)N[C@@H](Cc4ccc(-n5c(=O)c6ccncc6n(C)c5=O)cn4)C(=O)O)cc3F)nc2)cn1
result: 7.30 to 8.00
//
cpdSmiles: Cn1c(=O)n(-c2ccc(C[C@H](NC(=O)c3c(F)cc(NS(=O)(=O)c4ccccc4O)cc3F)C(=O)O)nc2)c(=O)c2ccncc21
result: 7.30 to 8.00
//
cpdSmiles: Cn1c(=O)n(-c2ccc(C[C@H](NC(=O)c3ccc(NS(=O)(=O)c4ccccn4)cc3F)C(=O)O)nc2)c(=O)c2ccncc21
result: 7.30 to 8.00
//
cpdSmiles: CNCc1ccc(S(=O)(=O)Nc2cc(F)c(C(=O)N[C@@H](Cc3ccc(-n4c(=O)ccn(C)c4=O)cc3)C(=O)O)c(F)c2)cc1
result: ≥ 8.00
//
cpdSmiles: Cn1c(=O)n(-c2ccc(C[C@H](NC(=O)c3cc(F)c(NS(=O)(=O)c4ccccn4)cc3F)C(=O)O)nc2)c(=O)c2ccncc21
result: 6.70 to 7.30
//
cpdSmiles: Cn1c(=O)n(-c2ccc(C[C@H](NC(=O)c3ccc(NS(=O)(=O)c4ccc5c(c4)C(=O)CC5)cc3F)C(=O)O)nc2)c(=O)c2ccncc21
result: 6.70 to 7.30
//
cpdSmiles: Cn1c(=O)n(-c2ccc(C[C@H](NC(=O)c3cc(F)c(NS(=O)(=O)c4ccc(-n5cncn5)cc4)cc3F)C(=O)O)cc2)c(=O)c2ccncc21
result: 7.30 to 8.00
//
cpdSmiles: Cn1c(=O)n(-c2ccc(C[C@H](NC(=O)c3cc(F)c(NS(=O)(=O)c4ccc5c(c4)C(=O)OC5)cc3F)C(=O)O)nc2)c(=O)c2ccncc21
result: 6.70 to 7.30
//
cpdSmiles: COc1ncc(-c2ccc(S(=O)(=O)Nc3cc(F)c(C(=O)N[C@@H](Cc4ccc(-n5c(=O)c6ccncc6n(C)c5=O)cn4)C(=O)O)cc3F)cc2)cn1
result: 6.70 to 7.30
//
cpdSmiles: Cn1c(=O)n(-c2ccc(C[C@H](NC(=O)c3ncc(NS(=O)(=O)c4ccco4)cc3F)C(=O)O)cc2)c(=O)c2ccncc21
result: 7.30 to 8.00
//
cpdSmiles: Cc1cn(C)c(=O)n(-c2ccc(C[C@H](NC(=O)c3ccc(NS(=O)(=O)c4ccc(C(=O)NC(C)(C)C)nc4)cc3F)C(=O)O)cc2)c1=O
result: 7.30 to 8.00
//
cpdSmiles: COc1ccccc1S(=O)(=O)Nc1cc(F)c(C(=O)N[C@@H](Cc2ccc(-n3c(=O)c4ccncc4n(C)c3=O)cn2)C(=O)O)c(F)c1
result: ≥ 8.00
//
cpdSmiles: Cn1c(=O)n(-c2ccc(C[C@H](NC(=O)c3c(F)cc(NS(=O)(=O)c4ccc(-c5ccsc5)cc4)cc3F)C(=O)O)nc2)c(=O)c2ccncc21
result: 7.30 to 8.00
//
cpdSmiles: Cn1c(=O)n(-c2ccc(C[C@H](NC(=O)c3c(F)cc(NS(=O)(=O)c4ccc(C(=O)NC5CCCC5)cc4)cc3F)C(=O)O)cc2)c(=O)c2ccncc21
result: 7.30 to 8.00
//
cpdSmiles: Cn1c(=O)n(-c2ccc(C[C@H](NC(=O)c3ncc(NS(=O)(=O)c4ccncc4)cc3F)C(=O)O)cc2)c(=O)c2ccncc21
result: 7.30 to 8.00
//
cpdSmiles: Cn1c(=O)n(-c2ccc(C[C@H](NC(=O)c3cc(F)c(NS(=O)(=O)c4ccc(-n5ccnn5)cc4)cc3F)C(=O)O)nc2)c(=O)c2ccncc21
result: 7.30 to 8.00
//
cpdSmiles: Cn1c(=O)n(-c2ccc(C[C@H](NC(=O)c3cc(F)c(NS(=O)(=O)c4ccc(-n5cncn5)cn4)cc3F)C(=O)O)nc2)c(=O)c2ccncc21
result: 7.30 to 8.00
//
cpdSmiles: CCOc1ccccc1S(=O)(=O)Nc1cc(F)c(C(=O)N[C@@H](Cc2ccc(-n3c(=O)c4ccncc4n(C)c3=O)cc2)C(=O)O)c(F)c1
result: 7.30 to 8.00
//
cpdSmiles: Cn1c(=O)n(-c2ccc(C[C@H](NC(=O)c3cc(F)c(NS(=O)(=O)c4ccc(-c5ncccn5)cn4)cc3F)C(=O)O)nc2)c(=O)c2ccncc21
result: 6.70 to 7.30
